Values from patent US20230019491A1

molecular target: IKKε (Homo sapiens); experiment: IKKε biochemical assay; settings: 10 point 1:4 dose response, 30 uM top concentration, 90 min at 25° C., LabChip EZ Reader II; read-out: IKKε_IC50
pIC50: −log10 of the molar value.
Provide the reported pIC50 of each item.

Example entries and their recorded answers appear below.
molecule	result
COc1nc(Nc2nccc(-c3ccc(OC4CCN(C(=O)[C@H](C)O)CC4(F)F)c(C#N)c3)n2)ccc1C1CCN(C2COC2)CC1 (stereo partly drawn)	> 7.00
COc1cc(Nc2nccc(-c3ccc(OC4CCN(C(=O)[C@@H](C)O)CC4)c(C#N)c3)n2)ncc1N1CCN(C2COC2)CC1	6.00 to 7.00
N#Cc1cc(-c2ccnc(Nc3ccc(N4CCN(C5COC5)CC4)cc3)n2)ccc1OC1CCN(C(=O)CO)CC1(F)F (stereo not drawn)	> 7.00
C[C@H](O)C(=O)N1CCC(Oc2ccc(-c3ccnc(Nc4ccccn4)n3)cc2C#N)C(F)(F)C1 (stereo partly drawn)	> 7.00
COc1nc(Nc2ncc(C)c(-c3ccc(OC4CCN(C(=O)[C@H](C)O)CC4(F)F)c(C#N)c3)n2)ccc1N1CCN(C2COC2)CC1 (stereo partly drawn)	> 7.00

Challenge: Provide only the value of recorded pIC50 for COc1nc(Nc2nccc(-c3ccc(OC4CCN(C(=O)[C@@H](C)O)CC4(F)F)c(C#N)c3)n2)ccc1N1CCN(C2COC2)[C@H](C)C1 (stereo partly drawn)
Response given: > 7.00

---

Biological target: IKKε (Homo sapiens, UniProt Q14164)
Sequence (Q14164 1-716): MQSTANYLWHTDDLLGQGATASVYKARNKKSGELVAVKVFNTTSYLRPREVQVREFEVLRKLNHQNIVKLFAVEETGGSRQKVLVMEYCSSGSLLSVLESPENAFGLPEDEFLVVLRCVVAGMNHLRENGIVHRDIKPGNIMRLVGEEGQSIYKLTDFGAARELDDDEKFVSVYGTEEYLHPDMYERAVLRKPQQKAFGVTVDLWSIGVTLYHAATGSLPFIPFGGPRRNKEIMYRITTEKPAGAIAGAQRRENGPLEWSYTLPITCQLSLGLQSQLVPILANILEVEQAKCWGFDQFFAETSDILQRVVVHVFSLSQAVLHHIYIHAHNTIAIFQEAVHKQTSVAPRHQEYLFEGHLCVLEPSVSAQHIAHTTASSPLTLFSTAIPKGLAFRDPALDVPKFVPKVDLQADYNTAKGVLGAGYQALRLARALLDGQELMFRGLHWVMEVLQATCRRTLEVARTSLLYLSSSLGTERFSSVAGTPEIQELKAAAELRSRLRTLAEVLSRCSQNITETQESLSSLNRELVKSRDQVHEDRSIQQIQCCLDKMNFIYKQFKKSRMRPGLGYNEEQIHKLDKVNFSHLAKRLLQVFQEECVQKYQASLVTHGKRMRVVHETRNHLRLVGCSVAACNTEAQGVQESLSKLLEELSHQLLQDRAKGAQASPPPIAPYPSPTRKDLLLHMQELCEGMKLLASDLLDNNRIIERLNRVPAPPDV
Experiment: IKKε biochemical assay
Details: 10 point 1:4 dose response, 30 uM top concentration, 90 min at 25° C., LabChip EZ Reader II; read-out: IKKε_IC50
Structures can show the parent of a compound that is named as a salt.
endpoint: IC50

Example entries and their recorded answers appear below.
molecule	result
COc1cccc(Nc2nccc(-c3ccc(OC4CCN(C(=O)c5n[nH]c(C)n5)CC4)c(C#N)c3)n2)n1 [Example 218]	< 100 nM
COc1nc(Nc2nccc(-c3ccc(N4CCC5(CC4)CNC5)c(C#N)c3)n2)ccc1N1CCN(C2COC2)CC1 [Example 313]	100 to 1000 nM
CN1CCC(Oc2ccc(-c3ccnc(Nc4ccc(N5CCN(C)CC5)cn4)n3)cc2C#N)CC1 [Example 83]	1000 to 5000 nM

Now for a further molecule.
Challenge: Provide only the value of recorded IC50 for COc1nc(Nc2nccc(-c3ccc(OC4CCOCC4)c(C#N)c3)n2)ccc1N(C)CC(=O)N(C)C [Example 35, hydrochloride]
Response given: < 100 nM
